GI50: recorded values
# Tested on: A-431
# Protocol Summary: Antiproliferative activity against human A-431 cells assessed as cell growth inhibition incubated for 72 hrs by MTT assay
# Type: functional
Supply the numeric figure in nM, leaving out any unit text.

| Molecule | GI50 (nM) |
| --- | --- |
| Cc1ccc(C2NC(=O)c3ccccc3N2)cc1 (stereo unspecified) | 2300 |
| O=C1NC(c2ccccc2Br)Nc2ccccc21 (stereo unspecified) | 2300 |
| COc1ccccc1/C=C/c1nc2ccccc2c(=O)[nH]1 | 330 |

What does the record list as GI50 for `Cc1ccc(/C=C/c2nc(O)c3ccccc3n2)cc1` ?
4000

What does the record list as GI50 for `O=c1[nH]c(/C=C/c2ccc(Br)cc2)nc2ccccc12` ?
11000

What does the record list as GI50 for O=C1NC(c2ccc(-c3ccccc3)cc2)Nc2ccccc21 (stereo unspecified) ?
2400

What does the record list as GI50 for O=C1NC(c2cc3ccccc3o2)Nc2ccccc21 (stereo unspecified) ?
2700

What does the record list as GI50 for `COc1cccc(/C=C/c2nc3ccccc3c(=O)[nH]2)c1` ?
2600

What does the record list as GI50 for `N#Cc1ccc2[nH]cc(-c3nc4ccccc4c(=O)[nH]3)c2c1` ?
4900

What does the record list as GI50 for O=C1NC(c2ccc(Br)cc2)Nc2ccccc21 (stereo unspecified) ?
3100

What does the record list as GI50 for `O=c1[nH]c(-c2ccc(Br)cc2)nc2ccccc12` ?
5800

What does the record list as GI50 for O=C1NC(c2cccc([N+](=O)[O-])c2)Nc2ccccc21 (stereo unspecified) ?
20000

What does the record list as GI50 for O=C1NC(CCc2ccccc2)Nc2ccccc21 (stereo unspecified) ?
3600

What does the record list as GI50 for O=C1NC(c2cccc(O)c2)Nc2ccccc21 (stereo unspecified) ?
3700

* * *

# Tested on: DU-145
# Protocol Summary: Antiproliferative activity against human DU-145 cells assessed as cell growth inhibition at 25 uM incubated for 72 hrs by MTT assay relative to control
# Assay type: functional
Endpoint: inhibition at 25 µM

Below, 3 molecules whose answers are already recorded.
| Molecule | Result |
| --- | --- |
| O=C1NC(c2cccc3ccccc23)Nc2ccccc21 (stereo unspecified) | > 100% |
| O=C1NC(c2cccc(C(F)(F)F)c2)Nc2ccccc21 (stereo unspecified) | > 100% |
| Oc1nc(-c2ccncc2)nc2ccccc12 | < 10% |

What does the record list as inhibition at 25 µM for O=C1NC(c2cccc(Br)c2)Nc2ccccc21 (stereo unspecified) ?
> 100%

What does the record list as inhibition at 25 µM for O=C1NC(c2ccc3ccccc3c2)Nc2ccccc21 (stereo unspecified) ?
> 100%

* * *

inhibition at 25 µM: recorded values
# Protocol Summary: Antiproliferative activity against human SJG2 cells assessed as cell growth inhibition at 25 uM incubated for 72 hrs by MTT assay relative to control
# Type: functional
# Stated Conditions: SJ-G2

| Molecule | inhibition at 25 µM |
| --- | --- |
| O=C1NC(c2ccc3ccccc3c2)Nc2ccccc21 (stereo not drawn) | > 100% |

What does the record list as inhibition at 25 µM for O=C1NC(c2ccccc2[N+](=O)[O-])Nc2ccccc21 (stereo not drawn) ?
33%

What does the record list as inhibition at 25 µM for COc1cccc(C2NC(=O)c3ccccc3N2)c1 (stereo not drawn) ?
> 100%

What does the record list as inhibition at 25 µM for `O=c1[nH]c(/C=C/c2ccccc2)nc2ccccc12` ?
> 100%

What does the record list as inhibition at 25 µM for Cc1ccc(C2NC(=O)c3ccccc3N2)cc1 (stereo not drawn) ?
> 100%

What does the record list as inhibition at 25 µM for O=C1NC(c2cccc3ccccc23)Nc2ccccc21 (stereo not drawn) ?
> 100%

* * *

# Test system: A2780
# Protocol Summary: Antiproliferative activity against human A2780 cells assessed as cell growth inhibition at 25 uM incubated for 72 hrs by MTT assay relative to control
# Assay type: functional
Endpoint: inhibition at 25 µM (%)
Supply the numeric figure in %, leaving out any unit text.

Below, 6 compounds whose answers are already recorded.
| Compound | Assay System | Unit Info | inhibition at 25 µM |
| --- | --- | --- | --- |
| N#Cc1cccc(C2NC(=O)c3ccccc3N2)c1 (stereo not drawn) | A2780 | % | 54 |
| O=c1[nH]c(-c2ccccc2Br)nc2ccccc12 | A2780 | % | 13 |
| CCCC/C=C/c1nc2ccccc2c(=O)[nH]1 | A2780 | % | 43 |
| O=C1NC(C2CCCC2)Nc2ccccc21 (stereo not drawn) | A2780 | % | 39 |
| O=C1NC(c2ccccc2[N+](=O)[O-])Nc2ccccc21 (stereo not drawn) | A2780 | % | 33 |
| COC(=O)c1cccc(/C=C/c2nc3ccccc3c(=O)[nH]2)c1 | A2780 | % | 16 |

Which measured inhibition at 25 µM belongs to O=C1NC(c2ccc(Br)o2)Nc2ccccc21 (stereo not drawn) , tested on A2780?
37

Which measured inhibition at 25 µM belongs to O=C1NC(/C(Br)=C/c2ccccc2)Nc2ccccc21 (stereo not drawn) , tested on A2780?
94

Which measured inhibition at 25 µM belongs to O=C1NC(c2ccc(Br)cc2)Nc2ccccc21 (stereo not drawn) , tested on A2780?
99

Which measured inhibition at 25 µM belongs to CC(C)(C)c1ccc(C2NC(=O)c3ccccc3N2)cc1 (stereo not drawn) , tested on A2780?
63

* * *

# Protocol Summary: Cytotoxicity against human MCF-10A cells assessed as cell growth inhibition at 25 uM incubated for 72 hrs by MTT assay relative to control
# Format: toxicity, cell-based
Endpoint: inhibition at 72 h, 25 µM (%)
Supply the numeric figure in %, leaving out any unit text.

| Compound | Result Number |
| --- | --- |
| O=C1NC(c2cccc(O)c2)Nc2ccccc21 (stereo unspecified) | 92 |

What does the record list as inhibition at 72 h, 25 µM for CCCCC1NC(=O)c2ccccc2N1 (stereo unspecified) ?
13

What does the record list as inhibition at 72 h, 25 µM for `O=c1[nH]c(-c2ccccc2Br)nc2ccccc12` ?
17

What does the record list as inhibition at 72 h, 25 µM for `O=c1[nH]c(-c2ccc(Br)cc2)nc2ccccc12` ?
91

* * *

# Tested on: U-87 MG
# Protocol Summary: Antiproliferative activity against human U87 cells assessed as cell growth inhibition at 25 uM incubated for 72 hrs by MTT assay relative to control
# Assay type: functional, U-87MG ATCC
Endpoint: inhibition at 25 µM

What does the record list as inhibition at 25 µM for O=C1NC(c2cccnc2)Nc2ccccc21 (stereo not drawn) ?
< 10%

What does the record list as inhibition at 25 µM for Cc1ccc(C2NC(=O)c3ccccc3N2)cc1 (stereo not drawn) ?
> 100%

What does the record list as inhibition at 25 µM for O=C1NC(c2ccc3nsnc3c2)Nc2ccccc21 (stereo not drawn) ?
< 10%

* * *

# System: A-431
# Protocol Summary: Antiproliferative activity against human A-431 cells assessed as cell growth inhibition incubated for 72 hrs by MTT assay
# Format: functional
Sorting guide: entries reporting GI50 beneath 3000 nM go in the met pile, the rest go in the not met pile.

| Compound | Class Assignment |
| --- | --- |
| CC(C)(C)c1ccc(C2NC(=O)c3ccccc3N2)cc1 (configuration not stated) | not met |

I'd appreciate it if you could check whether O=C1NC(c2cccc3ccccc23)Nc2ccccc21 (configuration not stated) has GI50 smaller than 3000 nM.
met

I'd appreciate it if you could check whether O=C1NC(c2cccc(C(F)(F)F)c2)Nc2ccccc21 (configuration not stated) has GI50 smaller than 3000 nM.
met

I'd appreciate it if you could check whether `O=c1[nH]c(/C=C/c2ccccc2)nc2ccccc12` has GI50 smaller than 3000 nM.
met

I'd appreciate it if you could check whether COc1cccc(C2NC(=O)c3ccccc3N2)c1 (configuration not stated) has GI50 smaller than 3000 nM.
met

I'd appreciate it if you could check whether `COC(=O)c1cccc(/C=C/c2nc3ccccc3c(=O)[nH]2)c1` has GI50 smaller than 3000 nM.
not met

* * *

# Test system: DU-145
# Protocol Summary: Antiproliferative activity against human DU-145 cells assessed as cell growth inhibition at 25 uM incubated for 72 hrs by MTT assay relative to control
# Format: functional
inhibition at 25 µM: recorded values

| Compound | Assay System | inhibition at 25 µM |
| --- | --- | --- |
| COc1ccccc1/C=C/c1nc2ccccc2c(=O)[nH]1 | DU-145 | > 100% |
| O=C1NC(c2ccc(Br)o2)Nc2ccccc21 (stereo unspecified) | DU-145 | < 10% |
| O=c1[nH]c(/C=C/c2cccc(O)c2)nc2ccccc12 | DU-145 | > 100% |

What does the record list as inhibition at 25 µM for O=C1NC(c2cc3ccccc3o2)Nc2ccccc21 (stereo unspecified) ?
≥ 28%

What does the record list as inhibition at 25 µM for `O=c1[nH]c(/C=C/c2ccc(O)cc2)nc2ccccc12` ?
> 100%

What does the record list as inhibition at 25 µM for `O=c1[nH]c(/C=C/c2ccccc2)nc2ccccc12` ?
> 100%
